Where do the numbers come from? From ChEMBL document CHEMBL4024742.

protocolNotes: Inhibition of bacterial SHV by measuring nitrocefin degradation
Parameters: species or system Bacteria
observable: Ki

Prompt: Need Ki, item O=C(O)C[C@@H]1CC[C@H](NC(=O)Cc2cccs2)B(O)O1
Response: 29 to 99 nM

---

Tested on: Staphylococcus aureus
protocolNotes: Inhibition of biofilm formation in Staphylococcus aureus ATCC 702 at 1.5 ug/ml after 24 hrs by MTT assay
Type: functional
particulars: ATCC 702, 24 h
Exercise: for every item that follows, state its recorded inhibition at 1.5 µg/mL.

Prompt: Value lookup for inhibition at 1.5 µg/mL; key = O=C(c1cc(Br)ccc1O)c1[nH]c(Br)c(Br)c1Br
Response: > 60%

Prompt: Same question for O=C(c1cc(Br)cc(Br)c1O)c1[nH]c(Br)c(Br)c1Br please.
Response: 68.5 to 100%

Prompt: Query O=C(c1cc(Br)ccc1O)c1[nH]c(Br)c(Cl)c1Br next
Response: > 60%

Prompt: Same lookup for O=C(c1cc(Br)ccc1O)c1[nH]c(Cl)c(Br)c1Br , please.
Response: > 60%

Prompt: Now the molecule O=C(c1cc(Cl)cc(Cl)c1O)c1[nH]c(Cl)c(Cl)c1Cl
Response: > 60%

Prompt: Subsequent entry: O=C(c1cc(Cl)cc(Cl)c1O)c1[nH]c(Br)c(Br)c1Br
Response: 67.9 to 86.7%
